# tgt: FXR:RXRa (Homo sapiens, UniProt Q96RI1;P19793 full;full)
# Sequence (Q96RI1 whole entry, chain 1 of 2): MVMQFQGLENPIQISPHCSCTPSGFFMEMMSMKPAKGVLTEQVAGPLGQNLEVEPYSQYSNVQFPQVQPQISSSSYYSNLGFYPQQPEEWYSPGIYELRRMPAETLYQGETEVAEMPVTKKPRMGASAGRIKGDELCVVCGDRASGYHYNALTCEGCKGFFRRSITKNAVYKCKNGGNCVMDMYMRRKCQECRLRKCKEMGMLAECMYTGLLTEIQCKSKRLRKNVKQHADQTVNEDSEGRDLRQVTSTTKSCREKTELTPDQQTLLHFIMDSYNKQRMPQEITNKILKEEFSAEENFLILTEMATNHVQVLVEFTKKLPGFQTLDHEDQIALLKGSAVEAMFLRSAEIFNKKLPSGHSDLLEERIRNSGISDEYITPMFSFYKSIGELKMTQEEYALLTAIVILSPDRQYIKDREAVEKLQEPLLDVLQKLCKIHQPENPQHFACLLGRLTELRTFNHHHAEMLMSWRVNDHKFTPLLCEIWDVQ
# Sequence (P19793 whole entry, chain 2 of 2): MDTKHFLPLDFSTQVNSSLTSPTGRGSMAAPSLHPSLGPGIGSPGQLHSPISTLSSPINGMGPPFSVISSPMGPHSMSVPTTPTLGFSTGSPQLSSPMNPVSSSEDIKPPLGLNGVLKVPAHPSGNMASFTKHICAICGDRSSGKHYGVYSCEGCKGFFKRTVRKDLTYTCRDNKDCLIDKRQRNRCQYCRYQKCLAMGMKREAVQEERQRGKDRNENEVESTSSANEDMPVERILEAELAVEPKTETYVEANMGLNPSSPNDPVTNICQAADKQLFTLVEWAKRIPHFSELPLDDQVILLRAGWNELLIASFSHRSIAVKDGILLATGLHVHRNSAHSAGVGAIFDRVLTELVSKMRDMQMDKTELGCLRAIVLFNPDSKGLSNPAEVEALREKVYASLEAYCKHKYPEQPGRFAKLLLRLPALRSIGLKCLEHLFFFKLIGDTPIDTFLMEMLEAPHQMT
# measurement protocol: no ligand; PBM; 270 nM : 90 nM RXRa; PBS pH 7.4, 2% milk, 0.02% Triton X-100, 1 mM DTT, BSA, 0.4 mg/ml salmon testes DNA
# test context: tags: His kept;His cleaved; copies: 1;1; label: surface-attached array probe
measured metric: binding signal

[Q] # query: binding signal of entry NRC3_random_hg19_250_o1 (dsDNA) DNA 1: GCCAAGACCATCCTGGCTAACACAGTGAAACCCTGTGCGATTGACAGCGTAGAATGAAGG DNA 2: CCTTCATTCTACGCTGTCAATCGCACAGGGTTTCACTGTGTTAGCCAGGATGGTCTTGGC
[A] 0 PBM z-score against 500 random probes
